Test system: MCF7
test details: Cytotoxicity against human MCF7 cells after 48 hrs by MTT assay
Type: functional, cell-based
readout name: Activity

[[record]]
compound = "CCCCCCCCCCCCCCCCNC(=O)C1CSC([C@H](O)[C@@H](OC(C)=O)[C@@H](OC(C)=O)[C@@H](COC(C)=O)OC(C)=O)N1C(C)=O (mixture of isomers)"
reported = "Dose-dependent effect"

[[record]]
compound = "CCCCCCCCCCCCCCNC(=O)C1CSC([C@H](O)[C@@H](OC(C)=O)[C@@H](OC(C)=O)[C@@H](COC(C)=O)OC(C)=O)N1C(C)=O (mixture of isomers)"
reported = "Dose-dependent effect"

[[record]]
compound = "CCCCCCCCCCCCCCCCCCNC(=O)C1CSC([C@H](O)[C@@H](OC(C)=O)[C@@H](OC(C)=O)[C@@H](COC(C)=O)OC(C)=O)N1C(C)=O (mixture of isomers)"
reported = "Dose-dependent effect"

[[record]]
compound = "CCCCCCCCCCCCNC(=O)C1CSC([C@H](O)[C@@H](OC(C)=O)[C@@H](OC(C)=O)[C@@H](COC(C)=O)OC(C)=O)N1C(C)=O (mixture of isomers)"
reported = "Dose-dependent effect"


###

Listing of recorded pIC50 by entry.
Tested on: MCF7
test details: Cytotoxicity against human MCF7 cells after 48 hrs by MTT assay
Format: functional, cell-based
stated conditions: MCF7, 48 h
pIC50: −log10 of the molar value.
readout name: pIC50

[[record]]
molecule = "CCCCCCCCCCCCNC(=O)C1CSC([C@H](O)[C@@H](OC(C)=O)[C@@H](OC(C)=O)[C@@H](COC(C)=O)OC(C)=O)N1C(C)=O (mixture of isomers)"
system_under_test = "MCF7"
reported = 5.12

[[record]]
molecule = "CCCCCCCCCCCCCCNC(=O)C1CSC([C@H](O)[C@@H](OC(C)=O)[C@@H](OC(C)=O)[C@@H](COC(C)=O)OC(C)=O)N1C(C)=O (mixture of isomers)"
system_under_test = "MCF7"
reported = 5.08

[[record]]
molecule = "CC(=O)O[C@@]12CO[C@@H]1C[C@H](O)[C@@]1(C)C(=O)[C@H](O)C3=C(C)[C@@H](OC(=O)[C@H](O)[C@@H](NC(=O)OC(C)(C)C)c4ccccc4)C[C@@](O)([C@@H](OC(=O)c4ccccc4)[C@H]21)C3(C)C"
system_under_test = "MCF7"
reported = 4.92

[[record]]
molecule = "CCCCCCCCCCCCCCCCNC(=O)C1CSC([C@H](O)[C@@H](OC(C)=O)[C@@H](OC(C)=O)[C@@H](COC(C)=O)OC(C)=O)N1C(C)=O (mixture of isomers)"
system_under_test = "MCF7"
reported = 5.24

[[record]]
molecule = "CCCCCCCCCCCCCCCCCCNC(=O)C1CSC([C@H](O)[C@@H](OC(C)=O)[C@@H](OC(C)=O)[C@@H](COC(C)=O)OC(C)=O)N1C(C)=O (mixture of isomers)"
system_under_test = "MCF7"
reported = 5.11


###

Tested on: A-375
test details: Selectivity index, ratio of IC50 for human HFF1 cells to IC50 for human A375 cells
Assay type: functional
Below: a set of entries, each annotated with reported Ratio IC50.
readout name: Ratio IC50

[[record]]
compound = "CCCCCCCCCCCCCCNC(=O)C1CSC([C@H](O)[C@@H](OC(C)=O)[C@@H](OC(C)=O)[C@@H](COC(C)=O)OC(C)=O)N1C(C)=O (mixture of isomers)"
readout_name = "Ratio IC50"
reported = 1

[[record]]
compound = "CCCCCCCCCCCCCCCCCCNC(=O)C1CSC([C@H](O)[C@@H](OC(C)=O)[C@@H](OC(C)=O)[C@@H](COC(C)=O)OC(C)=O)N1C(C)=O (mixture of isomers)"
readout_name = "Ratio IC50"
reported = 1.1

[[record]]
compound = "CCCCCCCCCCCCCCCCNC(=O)C1CSC([C@H](O)[C@@H](OC(C)=O)[C@@H](OC(C)=O)[C@@H](COC(C)=O)OC(C)=O)N1C(C)=O (mixture of isomers)"
readout_name = "Ratio IC50"
reported = 1.8

[[record]]
compound = "CCCCCCCCCCCCNC(=O)C1CSC([C@H](O)[C@@H](OC(C)=O)[C@@H](OC(C)=O)[C@@H](COC(C)=O)OC(C)=O)N1C(C)=O (mixture of isomers)"
readout_name = "Ratio IC50"
reported = 0.22


###

test details: Cytotoxicity against human HFF1 cells after 48 hrs by MTT assay
Format: cell-based
stated conditions: HFF-1, 48 h
readout name: IC50

[[record]]
compound = "CCCCCCCCCCCCCCNC(=O)C1CSC([C@H](O)[C@@H](OC(C)=O)[C@@H](OC(C)=O)[C@@H](COC(C)=O)OC(C)=O)N1C(C)=O (mixture of isomers)"
reported = "19.6 µM"

[[record]]
compound = "CCCCCCCCCCCCCCCCCCNC(=O)C1CSC([C@H](O)[C@@H](OC(C)=O)[C@@H](OC(C)=O)[C@@H](COC(C)=O)OC(C)=O)N1C(C)=O (mixture of isomers)"
reported = "27.2 µM"

[[record]]
compound = "CCCCCCCCCCCCNC(=O)C1CSC([C@H](O)[C@@H](OC(C)=O)[C@@H](OC(C)=O)[C@@H](COC(C)=O)OC(C)=O)N1C(C)=O (mixture of isomers)"
reported = "2.9 µM"

[[record]]
compound = "CCCCCCCCCCCCCCCCNC(=O)C1CSC([C@H](O)[C@@H](OC(C)=O)[C@@H](OC(C)=O)[C@@H](COC(C)=O)OC(C)=O)N1C(C)=O (mixture of isomers)"
reported = "29.8 µM"


Hello, the source for this data is ChEMBL document CHEMBL2034982, in case you need it.
